- measured_target: T1, human IL-21R extracellular domain His-Flag fusion protein (human, UniProt Q9HBE5 20-232)
- T1 construct: Biotinylated in the HTRF screen; also called hIL-21R-H/F; human IL-21R-H/F
- T1 sequence (Q9HBE5 20-232): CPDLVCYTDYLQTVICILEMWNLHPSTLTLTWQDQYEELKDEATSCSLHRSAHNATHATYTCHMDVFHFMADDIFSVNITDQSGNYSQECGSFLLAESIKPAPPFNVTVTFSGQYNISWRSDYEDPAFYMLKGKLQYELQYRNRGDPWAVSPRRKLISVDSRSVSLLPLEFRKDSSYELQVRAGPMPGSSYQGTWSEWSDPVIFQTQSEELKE
- test: SPR, Ab captured on anti-human IgG
For each entry below, report its koff value.

// query Which measured koff value corresponds to AbT (antibody, human IgG1, V domains shown, CDR3 graft, residue limits derived as for m29; also called VHP/VL9; VHPTM/VL9) VH: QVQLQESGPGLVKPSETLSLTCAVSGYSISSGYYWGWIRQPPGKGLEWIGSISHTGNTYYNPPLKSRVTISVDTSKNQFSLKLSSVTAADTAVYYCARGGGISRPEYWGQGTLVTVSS VL: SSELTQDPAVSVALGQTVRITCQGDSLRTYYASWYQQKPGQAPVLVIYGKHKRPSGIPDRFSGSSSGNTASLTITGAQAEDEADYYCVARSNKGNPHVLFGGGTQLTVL ?
// result 6.78e-05 s⁻¹

// query Now consider AbQ (antibody, human IgG1, V domains shown, CDR3 graft, residue limits derived as for m29; also called VH3/VL2; VH3DM/VL2) VH: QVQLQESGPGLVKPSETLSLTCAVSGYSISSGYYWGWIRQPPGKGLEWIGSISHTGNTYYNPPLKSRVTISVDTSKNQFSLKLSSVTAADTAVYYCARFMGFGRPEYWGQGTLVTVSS VL: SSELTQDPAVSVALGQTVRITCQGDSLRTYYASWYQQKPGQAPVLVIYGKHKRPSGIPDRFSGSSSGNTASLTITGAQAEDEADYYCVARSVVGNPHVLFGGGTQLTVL .
// result 9.34e-05 s⁻¹

// query Now consider AbS (antibody, V domains shown, CDR3 graft, residue limits derived as for m29; also called VHP/VL6; VHPTM/VL6) VH: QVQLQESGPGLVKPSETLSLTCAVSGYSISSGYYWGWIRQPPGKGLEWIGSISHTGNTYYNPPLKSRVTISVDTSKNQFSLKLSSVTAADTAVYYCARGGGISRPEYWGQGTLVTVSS VL: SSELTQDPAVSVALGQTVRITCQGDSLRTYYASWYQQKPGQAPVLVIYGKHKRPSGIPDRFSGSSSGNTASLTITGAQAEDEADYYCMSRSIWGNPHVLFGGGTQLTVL .
// result 0.000291 s⁻¹
